The reported measurements were obtained from patent US11382875B2.

# Tested on: α7 nAChR (Homo sapiens, UniProt P36544)
# Construct: host or cells: CHO cells (ATCC)
# Sequence (P36544 23-502): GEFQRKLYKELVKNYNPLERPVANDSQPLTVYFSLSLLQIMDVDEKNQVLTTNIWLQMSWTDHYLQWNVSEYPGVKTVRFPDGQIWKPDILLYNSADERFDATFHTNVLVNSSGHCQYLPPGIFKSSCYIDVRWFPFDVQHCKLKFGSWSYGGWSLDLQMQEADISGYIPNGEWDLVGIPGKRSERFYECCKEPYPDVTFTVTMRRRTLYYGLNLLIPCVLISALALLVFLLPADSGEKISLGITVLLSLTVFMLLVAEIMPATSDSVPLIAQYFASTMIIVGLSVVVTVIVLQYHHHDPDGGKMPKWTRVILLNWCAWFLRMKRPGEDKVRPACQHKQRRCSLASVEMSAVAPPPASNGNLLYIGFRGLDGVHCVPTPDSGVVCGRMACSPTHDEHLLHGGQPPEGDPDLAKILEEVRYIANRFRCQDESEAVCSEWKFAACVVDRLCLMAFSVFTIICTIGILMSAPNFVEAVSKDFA
# Test summary: In vitro patch-clamp assay for PAM activity at the α7 nAChR (IonWorks Barracuda, transfected CHO cells)
# Format: cell-based
# Conditions used: Table 1 Peak values, unit inferred; read-out: IC50 (inhibitor effects at the α7-nAChR)
Where a name gives a salt, the structure may show the parent alone.
Measured pIC50, listed per entry for reference.
Interpret pIC50 as the negative base-10 log of the concentration measured in mol/L.

>>> print(df.to_string())
                                   compound  numeric_readout
0  COc1ccccc1OCCNCC(O)COc1cccc2[nH]c3ccccc3c12 (stereo not drawn)             4.72

Q: # lookup: pIC50 of COc1cc2nc(N(C)CCCNC(=O)C3CCCO3)nc(N)c2cc1OC (stereo not drawn) [Alfuzosin hydrochloride]
A: 4.64

Q: Reported pIC50 for CC(C)NCC(O)COc1cccc2ccccc12 (stereo not drawn) : what is it?
A: 4.80
